biological target: Epidermal growth factor receptor (Homo sapiens); settings: A-431, at 1 µM
Sequence (P00533 whole entry): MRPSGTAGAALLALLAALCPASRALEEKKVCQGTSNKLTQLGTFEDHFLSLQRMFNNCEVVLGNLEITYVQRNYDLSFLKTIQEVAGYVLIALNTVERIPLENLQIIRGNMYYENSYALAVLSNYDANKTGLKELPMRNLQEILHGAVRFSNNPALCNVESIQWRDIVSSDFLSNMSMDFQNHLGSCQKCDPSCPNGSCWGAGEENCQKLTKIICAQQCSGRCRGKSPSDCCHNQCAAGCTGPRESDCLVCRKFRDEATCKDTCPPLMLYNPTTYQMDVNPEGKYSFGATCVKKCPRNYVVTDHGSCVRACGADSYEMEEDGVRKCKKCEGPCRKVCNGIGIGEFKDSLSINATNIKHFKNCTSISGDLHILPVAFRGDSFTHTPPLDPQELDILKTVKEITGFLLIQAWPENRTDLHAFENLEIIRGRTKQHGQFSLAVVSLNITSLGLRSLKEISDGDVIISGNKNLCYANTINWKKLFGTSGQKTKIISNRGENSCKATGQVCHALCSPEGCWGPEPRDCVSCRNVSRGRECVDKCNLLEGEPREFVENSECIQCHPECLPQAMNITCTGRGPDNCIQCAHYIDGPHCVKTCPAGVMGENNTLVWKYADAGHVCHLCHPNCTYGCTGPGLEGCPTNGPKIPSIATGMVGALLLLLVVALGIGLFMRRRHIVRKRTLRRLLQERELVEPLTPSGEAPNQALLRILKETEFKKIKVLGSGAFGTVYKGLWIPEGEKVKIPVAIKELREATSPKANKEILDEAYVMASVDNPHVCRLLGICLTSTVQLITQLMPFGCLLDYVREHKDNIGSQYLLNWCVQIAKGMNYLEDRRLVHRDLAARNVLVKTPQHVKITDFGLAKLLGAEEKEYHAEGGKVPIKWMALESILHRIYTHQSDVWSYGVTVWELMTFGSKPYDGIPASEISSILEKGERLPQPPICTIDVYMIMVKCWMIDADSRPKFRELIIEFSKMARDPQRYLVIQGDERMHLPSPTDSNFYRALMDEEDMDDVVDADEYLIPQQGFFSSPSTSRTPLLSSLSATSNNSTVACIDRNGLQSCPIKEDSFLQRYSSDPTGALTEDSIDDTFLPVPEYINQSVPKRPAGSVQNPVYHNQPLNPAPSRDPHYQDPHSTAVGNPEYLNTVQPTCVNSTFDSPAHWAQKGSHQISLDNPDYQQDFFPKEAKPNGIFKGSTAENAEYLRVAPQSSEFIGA
Description: Inhibition of EGFR autophosphorylation in human A431 cells at 1 uM after 8 hrs by Western blot
reported-property: inhibition (%)

CC(C)c1nsc(C(=O)Nc2ccc3ncnc(Nc4cccc(Br)c4)c3c2)n1
66.9

[1] O=C(COc1ccc(F)cc1)Nc1ccc2ncnc(Nc3cccc(Br)c3)c2c1
[2] O=C(COc1ccccc1)Nc1ccc2ccccc2c1
Input: Lower value for measured inhibition? Options: 1 , 2 Label of pick, please.
Output: 2
(2: 0%, 1: 77.6%)

====

test system: SW-620; experiment: Cytotoxicity against human SW620 cells after 72 hrs by MTT assay; type: ADME, cell-based; details: SW-620, 72 h
reported-property: pIC50
The scale used: pIC50 is minus the common logarithm of the concentration in molar units.

Input: Reported pIC50, compound C=CC(=O)Nc1ccc2ncnc(Nc3cccc(Br)c3)c2c1 : ____
Output: 5.08

====

Entries annotated with measured pIC50
tested on: NCI-H1975; test: Antiproliferative activity against human NCI-H1975 cells after 72 hrs by MTT assay; format: functional, cell-based; conditions: NCI-H1975, 72 h
The scale used: pIC50 is minus the common logarithm of the concentration in molar units.

O=C(COc1ccc(F)cc1)Nc1ccc2ncnc(Nc3cccc(Br)c3)c2c1
5.11

# evaluate next
Input: Reported pIC50, compound O=C(Nc1ccc2ncnc(Nc3cccc(Br)c3)c2c1)[C@@H]1O[C@H]1CN1CCCCC1 : ____
Output: 5.76
